Consider the following compounds and their measured DC50 readings.
Target: GSPT1-HiBiT protein in GSPT1-HiBiT HEK293 cells (Homo sapiens, UniProt P15170+Q96SW2)
Construct: endogenous in cells; host or cells: HEK293 (CRISPR/Cas9 knock-in of HiBiT at the GSPT1 locus)
Sequence (P15170 whole entry): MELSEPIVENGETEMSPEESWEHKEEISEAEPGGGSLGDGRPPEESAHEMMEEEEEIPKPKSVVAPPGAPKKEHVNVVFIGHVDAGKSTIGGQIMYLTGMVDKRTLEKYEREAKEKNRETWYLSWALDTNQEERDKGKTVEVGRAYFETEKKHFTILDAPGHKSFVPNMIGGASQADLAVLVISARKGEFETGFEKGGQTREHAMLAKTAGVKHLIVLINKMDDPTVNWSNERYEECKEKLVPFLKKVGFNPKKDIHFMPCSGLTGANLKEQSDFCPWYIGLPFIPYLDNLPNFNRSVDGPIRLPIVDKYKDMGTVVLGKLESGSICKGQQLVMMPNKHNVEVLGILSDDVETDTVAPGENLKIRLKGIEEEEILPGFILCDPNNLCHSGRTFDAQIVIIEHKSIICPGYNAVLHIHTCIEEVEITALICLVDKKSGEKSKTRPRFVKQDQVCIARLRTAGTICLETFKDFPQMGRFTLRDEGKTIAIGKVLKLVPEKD
Sequence (Q96SW2 whole entry): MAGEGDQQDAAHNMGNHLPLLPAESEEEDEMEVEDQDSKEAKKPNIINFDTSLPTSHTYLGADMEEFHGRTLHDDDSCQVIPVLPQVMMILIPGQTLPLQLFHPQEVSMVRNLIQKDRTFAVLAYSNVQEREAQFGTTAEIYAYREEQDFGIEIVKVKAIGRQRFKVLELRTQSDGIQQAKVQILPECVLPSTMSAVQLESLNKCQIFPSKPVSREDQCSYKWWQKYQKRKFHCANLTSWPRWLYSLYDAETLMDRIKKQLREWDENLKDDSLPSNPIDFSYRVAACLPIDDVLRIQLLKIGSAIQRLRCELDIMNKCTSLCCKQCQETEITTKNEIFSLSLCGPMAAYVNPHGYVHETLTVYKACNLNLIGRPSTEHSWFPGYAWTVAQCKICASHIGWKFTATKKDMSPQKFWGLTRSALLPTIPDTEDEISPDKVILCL
Sequence (Q16531 whole entry partner): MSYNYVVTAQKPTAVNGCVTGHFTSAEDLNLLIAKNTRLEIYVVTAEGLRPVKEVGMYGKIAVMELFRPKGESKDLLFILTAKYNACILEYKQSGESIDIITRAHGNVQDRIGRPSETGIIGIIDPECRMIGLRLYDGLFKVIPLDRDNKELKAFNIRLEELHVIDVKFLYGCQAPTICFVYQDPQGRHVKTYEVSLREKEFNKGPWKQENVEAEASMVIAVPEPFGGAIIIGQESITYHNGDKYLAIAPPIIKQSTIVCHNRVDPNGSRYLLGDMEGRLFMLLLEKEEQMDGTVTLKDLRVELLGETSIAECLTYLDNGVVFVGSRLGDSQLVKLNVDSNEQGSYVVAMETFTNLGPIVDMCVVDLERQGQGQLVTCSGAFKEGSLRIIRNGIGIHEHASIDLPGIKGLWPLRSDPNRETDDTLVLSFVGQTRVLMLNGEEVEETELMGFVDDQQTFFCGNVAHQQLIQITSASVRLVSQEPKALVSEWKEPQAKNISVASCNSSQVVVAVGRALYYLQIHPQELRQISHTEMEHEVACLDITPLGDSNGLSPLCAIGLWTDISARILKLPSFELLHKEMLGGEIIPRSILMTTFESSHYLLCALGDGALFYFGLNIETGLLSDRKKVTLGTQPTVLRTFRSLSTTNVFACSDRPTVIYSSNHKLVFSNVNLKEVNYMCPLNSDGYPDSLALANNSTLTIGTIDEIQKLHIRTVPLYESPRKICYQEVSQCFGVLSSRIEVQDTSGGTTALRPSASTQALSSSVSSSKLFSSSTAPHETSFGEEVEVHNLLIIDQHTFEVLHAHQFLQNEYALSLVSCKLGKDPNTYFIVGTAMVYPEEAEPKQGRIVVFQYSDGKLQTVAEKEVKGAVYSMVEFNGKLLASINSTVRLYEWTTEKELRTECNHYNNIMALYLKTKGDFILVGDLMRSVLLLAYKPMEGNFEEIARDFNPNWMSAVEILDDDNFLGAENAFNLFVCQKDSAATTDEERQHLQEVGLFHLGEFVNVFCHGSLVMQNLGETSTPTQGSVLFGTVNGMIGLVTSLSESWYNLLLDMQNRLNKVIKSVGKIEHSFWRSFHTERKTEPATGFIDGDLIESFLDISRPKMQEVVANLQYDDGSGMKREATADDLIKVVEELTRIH
Test: GSPT1 degradation assay using HiBiT system (Nano-Glo HiBiT lytic assay)
Format: cell-based
Settings: 6 hours treatment, read-out: HiBiT lytic assay Geomean absolute DC50
Protocol: The effect of selected compounds of the invention on GSPT1 protein levels was investigated, using the GSPT1-HiBiT HEK293 cell line and the Nano-Glo HiBiT degradation assay protocol below. […] For the Nano-Glo HiBiT assay, cells were seeded onto 384-well white solid bottom plate at 2×10^3 cells/well in 40 μL using the Agilent BioTek MultiFlo FX Multimode Dispenser and incubated overnight. […] Luminescence was read using the PHERAstar multimode plate reader (BMG LABTECH). […]

Worked cases, DC50 given:
{"compound": "Cc1nc2cc(COC(=O)Nc3cc(C(C)(C)C)no3)ccc2cc1C1CCC(=O)NC1=O (centres unmarked)", "measured-on": "GSPT1-HiBiT protein in GSPT1-HiBiT HEK293 cells (Homo sapiens, UniProt P15170+Q96SW2)", "reported-value": "< 10 nM"}
{"compound": "COc1cc(C)c(Cl)cc1NC(=O)OCc1ccc2cc(C3CCC(=O)NC3=O)c(C)nc2c1 (centres unmarked)", "measured-on": "GSPT1-HiBiT protein in GSPT1-HiBiT HEK293 cells (Homo sapiens, UniProt P15170+Q96SW2)", "reported-value": "10 to 50 nM"}
{"compound": "COc1ccc(NC(=O)OCc2ccc3cc(C4CCC(=O)NC4=O)c(C)nc3c2)cc1Cl (centres unmarked)", "measured-on": "GSPT1-HiBiT protein in GSPT1-HiBiT HEK293 cells (Homo sapiens, UniProt P15170+Q96SW2)", "reported-value": "< 10 nM"}
{"compound": "Cc1ccc(NC(=O)OCc2cc3nc(C)c(C4CCC(=O)NC4=O)cc3cc2F)cc1Cl (centres unmarked)", "measured-on": "GSPT1-HiBiT protein in GSPT1-HiBiT HEK293 cells (Homo sapiens, UniProt P15170+Q96SW2)", "reported-value": "50 to 100 nM"}
{"compound": "Cc1nc2cc(COC(=O)Nc3ccc(Cl)c(Cl)c3)ccc2cc1C1CCC(=O)NC1=O (centres unmarked)", "measured-on": "GSPT1-HiBiT protein in GSPT1-HiBiT HEK293 cells (Homo sapiens, UniProt P15170+Q96SW2)", "reported-value": "10 to 50 nM"}

Param readout = DC50; param system = GSPT1-HiBiT protein in GSPT1-HiBiT HEK293 cells (Homo sapiens, UniProt P15170+Q96SW2); param query = Cc1ccc(NC(=O)OCc2ccc3nc(C)c(N4CCC(=O)NC4=O)cc3c2)cc1Cl ; response: value
10 to 50 nM

Param readout = DC50; param system = GSPT1-HiBiT protein in GSPT1-HiBiT HEK293 cells (Homo sapiens, UniProt P15170+Q96SW2); param query = Cc1ccc(NC(=O)NCc2ccc3nc(C)c(N4CCC(=O)NC4=O)cc3c2)cc1Cl ; response: value
10 to 50 nM

Param readout = DC50; param system = GSPT1-HiBiT protein in GSPT1-HiBiT HEK293 cells (Homo sapiens, UniProt P15170+Q96SW2); param query = Cc1nc2cc(COC(=O)Nc3ccc(N4CCOCC4)nc3)ccc2cc1C1CCC(=O)NC1=O (centres unmarked) ; response: value
10 to 50 nM

Reference source for all entries: patent US20260232682A1
